# Tested on: human hepatocytes HepG2
# PROCEDURE SUMMARY: Cytotoxicity against HepG2 cells
# COND: human

[
  {
    "COMPOUND": "CCN(CC)CCCC(C)Nc1c2ccc(Cl)cc2nc2ccc(OC)cc12 (stereo not shown) [quinacrine, reference compound]",
    "EC90": "18.2 µM"
  }
]

* * *

[
  {
    "MOLECULE": "O=C(Nc1ccc2sc(-c3ccc(F)c(F)c3)nc2c1)N1C[C@@H](F)[C@@H](F)C1",
    "melting point": "241 to 243 °C"
  },
  {
    "MOLECULE": "O=C(Nc1ccc2sc(-c3ccccc3)nc2c1)c1cccs1",
    "melting point": "256 °C"
  },
  {
    "MOLECULE": "O=C(Nc1ccc2sc(-c3cccc(F)c3)nc2c1)c1ccccc1",
    "melting point": "221 to 222 °C"
  },
  {
    "MOLECULE": "COC1CCN(C(=O)Nc2ccc3sc(-c4ccc(F)c(F)c4)nc3c2)C1 (centres unmarked)",
    "melting point": "189 to 190.5 °C"
  },
  {
    "MOLECULE": "O=C(Nc1ccc2sc(-c3ccc(F)c(F)c3)nc2c1)N1CCC(F)(F)C1",
    "melting point": "227 to 228 °C"
  },
  {
    "MOLECULE": "O=C(Nc1ccc2oc(-c3ccccc3)nc2c1)N1CCCCC1",
    "melting point": "207 to 209 °C"
  },
  {
    "MOLECULE": "CN(C)C1CCN(C(=O)Nc2ccc3sc(-c4ccc(F)c(F)c4)nc3c2)C1 (centres unmarked)",
    "melting point": "147 to 149 °C"
  },
  {
    "MOLECULE": "O=C(Nc1ccc2sc(-c3ccc(F)c(F)c3)nc2c1)N1CCC(C(F)(F)F)C1 (centres unmarked)",
    "melting point": "171 to 175 °C"
  },
  {
    "MOLECULE": "O=C(Nc1ccc2sc(-c3ccccc3)nc2c1)N1CC=CCC1",
    "melting point": "199 to 200 °C"
  },
  {
    "MOLECULE": "O=C(Nc1ccc2sc(-c3ccc(F)c(F)c3)nc2c1)N1C[C@@H](F)[C@H](F)C1",
    "melting point": "217 to 218 °C"
  },
  {
    "MOLECULE": "O=C(Nc1ccc2sc(-c3ccc(F)cc3)nc2c1)c1ccccc1",
    "melting point": "232.5 to 233.5 °C"
  },
  {
    "MOLECULE": "O=C(Nc1ccc2sc(-c3ccccc3)nc2c1)N1CCCCC1",
    "melting point": "230 to 232 °C"
  },
  {
    "MOLECULE": "O=C(Nc1ccc2sc(-c3ccc(F)c(F)c3)nc2c1)N1CCC(F)CC1",
    "melting point": "231.5 to 232 °C"
  },
  {
    "MOLECULE": "O=C(Nc1ccc2sc(-c3cccc(F)c3)nc2c1)N1CCCCC1",
    "melting point": "216 to 217 °C"
  },
  {
    "MOLECULE": "N#CC1CCN(C(=O)Nc2ccc3sc(-c4ccc(F)c(F)c4)nc3c2)C1 (centres unmarked)",
    "melting point": "222 to 224 °C"
  },
  {
    "MOLECULE": "O=C(Nc1ccc2sc(-c3ccccc3)nc2c1)N1CCSC1",
    "melting point": "177 to 179 °C"
  },
  {
    "MOLECULE": "O=C(Nc1ccc2sc(-c3ccc(F)cc3)nc2c1)N1CCCC1",
    "melting point": "211 to 213 °C"
  }
]

Origin of values: patent US10399966B2
